Tested on: HEK293 cells
Details: HEK293 flor, time point 8
Metric Name: hek293_flor_pod_8
Give bare numbers.

Recorded results for 4 molecules are shown here.
1. O=S1(=O)OC(c2ccc(O)cc2)(c2ccc(O)cc2)c2ccccc21 :: -4.417
2. CC(C)=CCC/C(C)=C/CO :: -4.417
3. Cc1cc(N)c2cc(NC(=O)Nc3ccc4nc(C)cc(N)c4c3)ccc2n1.Cl.Cl [Aminoquinuride dihydrochloride] :: -4.417
4. CN(C)c1ccc(C(=C2C=CC(=[N+](C)C)C=C2)c2ccccc2)cc1.CN(C)c1ccc(C(=C2C=CC(=[N+](C)C)C=C2)c2ccccc2)cc1.O=C(O)C(=O)O.O=C([O-])C(=O)O.O=C([O-])C(=O)O [Malachite green oxalate] :: -4.417

Now take the following molecule into account.
Data point: `O=C(O)c1ccccc1O.Oc1cccc2cccnc12` ; hek293_flor_pod_8 = -4.417

---

Exercise: state measured hepg2_flor_emax_0 for each of the molecules provided.
Tested on: HepG2 cells
Method Description: CellTox Green Cytotoxicity Assay (flor) in HepG2, HepG2[flor];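 for hepg2 flor emax 0: percent activity versus DMSO-only wells with baseline rescaled to 0%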
Format: cell-based, human
Details: HepG2 flor, time point 0
Numbers only.

1) CC(C)=CCC/C(C)=C/CO :: 0
2) Cc1cc(N)c2cc(NC(=O)Nc3ccc4nc(C)cc(N)c4c3)ccc2n1.Cl.Cl [Aminoquinuride dihydrochloride] :: 0
3) O=S1(=O)OC(c2ccc(O)cc2)(c2ccc(O)cc2)c2ccccc21 :: 0
4) O=C(O)c1ccccc1O.Oc1cccc2cccnc12 :: 0

Now take the following molecule into account.
Data point: CN(C)c1ccc(C(=C2C=CC(=[N+](C)C)C=C2)c2ccccc2)cc1.CN(C)c1ccc(C(=C2C=CC(=[N+](C)C)C=C2)c2ccccc2)cc1.O=C(O)C(=O)O.O=C([O-])C(=O)O.O=C([O-])C(=O)O [Malachite green oxalate] ; hepg2_flor_emax_0 = 0

---

Test system: HEK293 cells
Details: HEK293 flor, time point 40
Exercise: state measured hek293_flor_pod_40 for each of the compounds provided.
Answers are plain numbers.

1. CC(C)=CCC/C(C)=C/CO :: -4.417
2. CN(C)c1ccc(C(=C2C=CC(=[N+](C)C)C=C2)c2ccccc2)cc1.CN(C)c1ccc(C(=C2C=CC(=[N+](C)C)C=C2)c2ccccc2)cc1.O=C(O)C(=O)O.O=C([O-])C(=O)O.O=C([O-])C(=O)O [Malachite green oxalate] :: -5.642
3. O=S1(=O)OC(c2ccc(O)cc2)(c2ccc(O)cc2)c2ccccc21 :: -4.417
4. O=C(O)c1ccccc1O.Oc1cccc2cccnc12 :: -4.417

Now take the following compound into account.
Data point: Cc1cc(N)c2cc(NC(=O)Nc3ccc4nc(C)cc(N)c4c3)ccc2n1.Cl.Cl [Aminoquinuride dihydrochloride] ; hek293_flor_pod_40 = -4.417

---

Tested on: HepG2 cells
Method Description: CellTox Green Cytotoxicity Assay (flor) in HepG2, HepG2[flor]
Assay type: cell-based, human
Details: HepG2 flor
Exercise: state measured hepg2_flor_auc for each of the compounds provided.
Give bare numbers.

Recorded results for 4 compounds are shown here.
1. CN(C)c1ccc(C(=C2C=CC(=[N+](C)C)C=C2)c2ccccc2)cc1.CN(C)c1ccc(C(=C2C=CC(=[N+](C)C)C=C2)c2ccccc2)cc1.O=C(O)C(=O)O.O=C([O-])C(=O)O.O=C([O-])C(=O)O [Malachite green oxalate] :: 1.813
2. O=S1(=O)OC(c2ccc(O)cc2)(c2ccc(O)cc2)c2ccccc21 [Phenol red] :: 0
3. CC(C)=CCC/C(C)=C/CO [Geraniol] :: 0
4. Cc1cc(N)c2cc(NC(=O)Nc3ccc4nc(C)cc(N)c4c3)ccc2n1.Cl.Cl [Aminoquinuride dihydrochloride] :: 0

Data point: O=C(O)c1ccccc1O.Oc1cccc2cccnc12 [8-Quinolinol Salicylic acid (1:1)] ; hepg2_flor_auc = 0
